The entries below come with measured protein stability index values attached.
B1: PPFIA4 (parent)
chain: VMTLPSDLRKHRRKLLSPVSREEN

variants of: B1; assay: protein stability index of a GFP-peptide fusion (GPS, HEK-293T) (PSI 1-6); higher = more stable; settings: c terminus: a fixed tail appended;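 further: lentivirally expressed fusions sorted by FACS into six bins by GFP to DsRed ratio, PSI derived from sequencing read proportions per bin multiplied by bin number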
Reply briefly: the number, and no unit.

Solved cases below.
>  <biosequence>
VMTLPSDLRKHRCKLLSPVSREEN [R13C]

>  <measurement>
3.49

$$$$
>  <biosequence>
VMTLPSDLRMHRRKLLSPVSREEN [K10M]

>  <measurement>
3.46

$$$$
>  <biosequence>
VMTLPSDLRKHRRKLCSPVSREEN [L16C]

>  <measurement>
4.37

$$$$
>  <biosequence>
VMTLPSDLRKHRRKLLSIVSREEN [P18I]

>  <measurement>
3.33

$$$$
>  <biosequence>
VMTLPSDLAKHRRKLLSPVSREEN [R9A]

>  <measurement>
4.01

$$$$
>  <biosequence>
VMTLPSDLRKHRRKLLSPVPREEN [S20P]

>  <measurement>
3.67

$$$$
>  <biosequence>
VMTLPADLRKHRRKLLSPVSREEN [S6A]

>  <measurement>
3.93

$$$$
>  <biosequence>
KMTLPSDLRKHRRKLLSPVSREEN [V1K]

>  <measurement>
3.81

$$$$

protein stability index recorded for this variant, VMTLPSDLRKHRRKLLSKVSREEN [P18K] , is 4.16

protein stability index recorded for this variant, VMTLPSDLRKHRRKLLSNVSREEN [P18N] , is 3.72

protein stability index recorded for this variant, VMTLPSDLRKHRRKLLSWVSREEN [P18W] , is 2.47

protein stability index recorded for this variant, VMTLPSDLRKHRVKLLSPVSREEN [R13V] , is 3.78

protein stability index recorded for this variant, VMLLPSDLRKHRRKLLSPVSREEN [T3L] , is 2.32

protein stability index recorded for this variant, VMTLPSDGRKHRRKLLSPVSREEN [L8G] , is 3.56

protein stability index recorded for this variant, VMTLPSDLRKHRRKLDSPVSREEN [L16D] , is 4.08

protein stability index recorded for this variant, VMTLPSDLRKHRRKQLSPVSREEN [L15Q] , is 3.83

protein stability index recorded for this variant, VMTLPSPLRKHRRKLLSPVSREEN [D7P] , is 3.44

protein stability index recorded for this variant, VMTLPSDIRKHRRKLLSPVSREEN [L8I] , is 4.07
